Assignment: determine reported CC50 for the given molecules.
Assay: in vitro
Details: dog

Q. What CC50 value was documented for this molecule, CC(C)c1ccccc1NCCN1CCCCC1 [RL-007, reference compound] ?
A. 33 µM

Q. Quick one: Cc1cc(CNC(=O)c2cc(F)cc(C(F)(F)F)c2)cs1 [Compound 45]
A. 67 µM

Q. Quick one: Cc1cc(CNC(=O)c2cc(F)c(F)c(C(F)(F)F)c2)c(C)s1 [Compound 35]
A. > 100 µM

Q. Quick one: Cc1cc(CNC(=O)c2cc(Cl)cc(C(F)(F)F)c2Cl)c(C)s1 [Compound 39]
A. > 100 µM

Q. Quick one: Cc1cc(CNC(=O)c2cc(Cl)cc(C(F)(F)F)c2)c(C)o1 [Compound 55]
A. 29 µM

Q. Quick one: Cc1sccc1CNC(=O)c1cc(Cl)cc(C(F)(F)F)c1 [Compound 49]
A. > 100 µM

Q. Quick one: Cc1cc(CNC(=O)c2cc(Cl)cc(C(F)(F)F)c2Cl)cs1 [Compound 53]
A. > 100 µM

Q. Quick one: Cc1cc(CNC(=O)c2cc(Cl)cc(C(F)(F)F)c2)cs1 [Compound 48]
A. > 100 µM

Q. Quick one: Cc1sccc1CNC(=O)c1cc(F)cc(C(F)(F)F)c1 [Compound 46]
A. > 100 µM

Q. Quick one: Cc1cc(CNC(=O)c2cc(C(F)(F)F)cc(Cl)c2F)c(C)s1 [Compound 37]
A. > 100 µM

---

Assignment: determine reported Cytotoxicity MCC, Microscopy for the given molecules.
System: MDCK cells
Conditions: dog
Give just the number in µM; leave the unit off.

Q. What Cytotoxicity MCC, Microscopy value was documented for this molecule, Cc1sccc1CNC(=O)c1cc(Cl)cc(C(F)(F)F)c1 [Compound 49] ?
A. 78

Q. Quick one: NC(=O)c1ncn([C@@H]2O[C@H](CO)[C@@H](O)[C@H]2O)n1 [Ribavirin, reference compound]
A. 80

Q. Quick one: Cc1cc(CNC(=O)c2cc(F)cc(C(F)(F)F)c2)cs1 [Compound 45]
A. 78

Q. Quick one: Cc1cc(CNC(=O)c2cc(C(F)(F)F)cc(Cl)c2F)c(C)s1 [Compound 37]
A. 56

Q. Quick one: Cc1cc(CNC(=O)c2cc(Cl)cc(C(F)(F)F)c2Cl)c(C)s1 [Compound 39]
A. 52

Q. Quick one: Cc1cc(CNC(=O)c2cc(F)c(F)c(C(F)(F)F)c2)cs1 [Compound 51]
A. 33

Q. Quick one: Cc1cc(CNC(=O)c2cc(Cl)cc(C(F)(F)F)c2)c(C)o1 [Compound 55]
A. 33

Q. Quick one: Cc1cc(CNC(=O)c2cc(Cl)c(F)c(C(F)(F)F)c2)c(C)s1 [Compound 38]
A. 40

Q. Quick one: O=C(NCc1ccsc1)c1cc(Cl)cc(C(F)(F)F)c1 [Compound 50]
A. 100

Q. Quick one: Cc1sccc1CNC(=O)c1cc(F)cc(C(F)(F)F)c1 [Compound 46]
A. 67

Q. Quick one: Cc1cc(CNC(=O)c2cc(F)cc(C(F)(F)F)c2)c(C)o1 [Compound 54]
A. 100

---

Molecular target: H1 HA (Influenza A virus)
Sequence (C3W5S1 18-344 limits assumed): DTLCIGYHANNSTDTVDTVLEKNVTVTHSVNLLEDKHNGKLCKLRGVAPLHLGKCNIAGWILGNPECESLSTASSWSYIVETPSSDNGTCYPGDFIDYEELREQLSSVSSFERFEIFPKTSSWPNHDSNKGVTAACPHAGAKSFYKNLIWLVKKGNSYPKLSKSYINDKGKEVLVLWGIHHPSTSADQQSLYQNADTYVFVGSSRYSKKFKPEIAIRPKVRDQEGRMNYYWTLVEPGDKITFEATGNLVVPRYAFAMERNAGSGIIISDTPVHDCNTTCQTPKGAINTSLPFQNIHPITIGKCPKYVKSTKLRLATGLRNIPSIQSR
Sequence (C3W5S1 345-566 limits assumed): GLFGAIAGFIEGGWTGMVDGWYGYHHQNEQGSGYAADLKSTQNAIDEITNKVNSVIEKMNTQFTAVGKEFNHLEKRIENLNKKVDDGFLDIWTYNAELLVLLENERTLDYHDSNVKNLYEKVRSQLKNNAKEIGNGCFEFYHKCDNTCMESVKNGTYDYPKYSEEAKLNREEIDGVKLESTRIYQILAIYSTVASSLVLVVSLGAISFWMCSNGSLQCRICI
Assay: cell-based
recorded metric: pEC50
In textbook form, pEC50 equals minus log to base ten of the concentration in mol/L.

Q. What pEC50 value was documented for this compound, Cc1cc(CNC(=O)c2cc(Cl)cc(C(F)(F)F)c2)c(C)s1 ?
A. 6.02

Q. Quick one: CC(C)c1ccccc1NCCN1CCCCC1 [RL-007, reference compound]
A. 5.39

---

Assay: in vitro
Conditions: dog
Assignment: determine reported CC50 for the given compounds.

Q. What CC50 value was documented for this compound, O=C(NCc1ccsc1)c1cc(Cl)cc(C(F)(F)F)c1 ?
A. 70 µM

Q. Quick one: Cc1cc(CNC(=O)c2cc(F)cc(C(F)(F)F)c2)c(C)s1
A. > 100 µM

Q. Quick one: Cc1cc(CNC(=O)c2cc(Cl)cc(C(F)(F)F)c2)c(C)s1
A. > 100 µM

Q. Quick one: NC(=O)c1ncn([C@@H]2O[C@H](CO)[C@@H](O)[C@H]2O)n1 [Ribavirin, reference compound]
A. > 250 µM

Q. Quick one: Cc1cc(CNC(=O)c2cc(F)cc(C(F)(F)F)c2)c(C)o1
A. 79 µM

Q. Quick one: O=C(NCc1ccsc1)c1cc(F)cc(C(F)(F)F)c1
A. > 100 µM

Q. Quick one: Cc1cc(CNC(=O)c2cc(Cl)c(F)c(C(F)(F)F)c2)c(C)s1
A. > 100 µM

Q. Quick one: Cc1cc(CNC(=O)c2cc(Cl)c(F)c(C(F)(F)F)c2)cs1
A. > 100 µM

Q. Quick one: Cc1cc(CNC(=O)c2cc(F)c(F)c(C(F)(F)F)c2)cs1
A. 24 µM

---

Assignment: determine reported EC50 for the given compounds.
Tested on: A/H1N1 virus A/PR/8/34 (PR8)
Assay: microbe, parasite or virus in culture
Format: cell-based
Settings: Influenza A virus, MDCK, read-out: Antiviral EC50 for PR8 virus

Q. What EC50 value was documented for this compound, Cc1cc(CNC(=O)c2cc(Br)cc(Br)c2)c(C)s1 ?
A. > 100 µM

Q. Quick one: Cc1cc(CNC(=O)c2cccc(Cl)c2)c(C)s1
A. > 100 µM

Q. Quick one: O=C(NCc1ccon1)c1cc(F)cc(C(F)(F)F)c1
A. > 100 µM

Q. Quick one: Cc1cc(CNC(=O)c2cc(F)cc(C(F)(F)F)c2)c(C)s1
A. ~1 µM

Q. Quick one: Cc1cc(CNC(=O)c2cc(Cl)cc(C(F)(F)F)c2)c(C)s1
A. 1 µM

Q. Quick one: Cc1cc(CNC(=O)c2cc(C(F)(F)F)cc(C(F)(F)F)c2)c(C)s1
A. > 100 µM

Q. Quick one: Cc1cc(CNC(=O)c2ccccc2)c(C)s1
A. > 100 µM

Q. Quick one: Cc1cc(CNC(=O)c2cccc([N+](=O)[O-])c2)c(C)s1
A. > 100 µM

Q. Quick one: Cc1cc(CNC(=O)c2cc(Br)cc(C(F)(F)F)c2)c(C)s1
A. > 100 µM

Q. Quick one: Cc1cc(COC(=O)c2cc(F)cc(C(F)(F)F)c2)c(C)s1
A. > 100 µM

---

System: A/H1N1 virus A/Virginia/ATCC3/2009 (Virg09)
Assay: microbe, parasite or virus in culture
Type: cell-based, influenza A virus
Conditions: Influenza A virus, MDCK, read-out: Antiviral EC50 against A/H1N1 virus, Virg09 strain, Microscopy
recorded metric: pEC50
In textbook form, pEC50 equals minus log to base ten of the concentration in mol/L.

Q. What pEC50 value was documented for this compound, Cc1cc(CNC(=O)c2cc(Cl)c(F)c(C(F)(F)F)c2)c(C)s1 ?
A. 5.51

Q. Quick one: Cc1cc(CNC(=O)c2cc(F)cc(C(F)(F)F)c2)c(C)s1
A. 5.77

Q. Quick one: CC(C)c1ccccc1NCCN1CCCCC1 [RL-007, reference compound]
A. 6.16

---

Tested on: A/H1N1 virus A/Virginia/ATCC3/2009 (Virg09)
Assay: microbe, parasite or virus in culture
Format: cell-based, influenza A virus
Settings: Influenza A virus, MDCK, read-out: Antiviral EC50 against A/H1N1 virus, Virg09 strain, Microscopy
recorded metric: log10 of EC50 (log10 of the value in µM)
Annotation: log10 of EC50, µM basis.

Q. Lab note: need log10 of EC50 for Cc1cc(CNC(=O)c2cc(Cl)cc(C(F)(F)F)c2Cl)c(C)s1 on A/H1N1 virus A/Virginia/ATCC3/2009 (Virg09), anyone have it?
A. 0.91

Q. Quick one: O=C1c2c(O)c(=O)ccn2N([C@@H]2c3ccccc3SCc3c2ccc(F)c3F)[C@@H]2COCCN12
A. -2.46

Q. Quick one: Cc1sccc1CNC(=O)c1cc(F)cc(C(F)(F)F)c1
A. 0.92

Q. Quick one: Cc1cc(CNC(=O)c2cc(F)cc(C(F)(F)F)c2)cs1
A. 0.20

Q. Quick one: O=C(NCc1ccsc1)c1cc(F)cc(C(F)(F)F)c1
A. 1.30

Q. Quick one: Cc1cc(CNC(=O)c2cc(Cl)cc(C(F)(F)F)c2)cs1
A. 0.28

Q. Quick one: Cc1sccc1CNC(=O)c1cc(Cl)cc(C(F)(F)F)c1
A. -0.32

---

Tested on: A/H5N1 (FL22, A/bald eagle/FL/W22-114/2022) pseudovirus
Experiment: organism not typed
Assay type: cell-based, influenza A virus
Conditions: read-out: EC50 for A/H5N1 (FL22) pseudovirus entry
recorded metric: EC50 (nM)
Give just the number in nM; leave the unit off.

Q. What EC50 value was documented for this compound, Cc1cc(CNC(=O)c2cc(Cl)cc(C(F)(F)F)c2)c(C)s1 ?
A. 810
